- target-under-test: CB2 receptor (Homo sapiens, UniProt P34972)
- Construct: expressed in transfected cells
- Sequence (P34972 whole entry): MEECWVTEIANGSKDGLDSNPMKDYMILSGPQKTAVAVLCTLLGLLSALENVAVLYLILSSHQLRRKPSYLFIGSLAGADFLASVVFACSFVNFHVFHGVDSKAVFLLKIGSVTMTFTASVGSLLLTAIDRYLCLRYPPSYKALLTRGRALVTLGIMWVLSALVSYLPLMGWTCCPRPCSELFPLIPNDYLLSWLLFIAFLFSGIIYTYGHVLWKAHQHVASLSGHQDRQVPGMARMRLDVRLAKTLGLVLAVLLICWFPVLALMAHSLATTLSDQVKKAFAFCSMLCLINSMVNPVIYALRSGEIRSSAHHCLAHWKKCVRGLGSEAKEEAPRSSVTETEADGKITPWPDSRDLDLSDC
- test: Binding assay for CB2 agonists or inverse agonists (SK-N-MC membranes, [3H]-CP-55,940)
- run-parameters: read-out: CB2 receptor binding percent inhibition, test concentration 0.2 μM (footnote 2)
measurement-kind: inhibition at 0.2 µM (%)
Write down the numeric answer in % and omit the unit.

Take a look at these entries with their results.
# compound, assay-value
rows = [
    ("COc1ccc(/C=C2\\CCCCc3c(C(=O)N[C@H](C)C4CCCCC4)nn(-c4ccc(Cl)cc4Cl)c32)cc1", 43),
    ("C[C@H](NC(=O)c1nn(-c2ccccc2Cl)c2c1CCCC/C2=C\\c1ccc(Cl)cc1)C1CCCCC1", 7),
    ("O=C(N[C@@H](CO)c1ccccc1)c1n[nH]c2c1CCCC/C2=C\\c1cccc(Cl)c1", 91),
    ("O=C(c1nn(-c2ccc(Cl)cc2Cl)c2c1CCCC/C2=C\\c1ccc(F)cc1)N1CCCC1c1ccccn1 (centres unmarked)", 36),
    ("O=C(NCc1ccccn1)c1nn(-c2ccc(Cl)cc2Cl)c2c1CCCC/C2=C\\c1ccc(Cl)cc1", 8),
    ("O=C(NCc1ccncc1)c1nn(-c2ccc(Cl)cc2Cl)c2c1CCCC/C2=C\\c1ccc(Cl)cc1", 36),
    ("O=C(N[C@@H](CO)c1ccccc1)c1n[nH]c2c1CCCCC2Cc1cccc(Cl)c1 (some centres unmarked)", 98),
]

Okay, now this compound:
Case O=C(N[C@H]1c2ccccc2C[C@H]1O)c1nn(-c2ccc(Cl)cc2Cl)c2c1CCCC/C2=C\c1ccc(F)cc1 , CB2 receptor (Homo sapiens, UniProt P34972), inhibition at 0.2 µM recorded as 31

The measurements presented in this section are drawn from patent US8378117B2.
